Origin of measurements: paper PMC4648260

assayedSystem: RhlR (Pseudomonas aeruginosa, UniProt P54292)
Sequence (P54292 whole entry): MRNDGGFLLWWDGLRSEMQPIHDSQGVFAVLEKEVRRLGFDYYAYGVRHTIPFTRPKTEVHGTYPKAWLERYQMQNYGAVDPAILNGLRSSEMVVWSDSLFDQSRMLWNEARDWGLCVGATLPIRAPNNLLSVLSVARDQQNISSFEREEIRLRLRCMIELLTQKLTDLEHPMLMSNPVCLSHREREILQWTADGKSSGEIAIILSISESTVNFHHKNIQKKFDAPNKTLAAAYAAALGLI
Format: cell-based
protocolConditions: compound at 100 μM in the presence of 10 μM BHL; untreated culture set to 100%; E. coli reporter; error ±10%; selected data reproduced from ref. [23]
Quick list: Inhibition (%) / % RhlR inhibition per entry.
// return numeric value only (unit: %, not printed)

These solved cases illustrate the format of a correct answer.
molecule | observable | unitSymbol | testValue
O=C(Cc1ccccc1)N[C@@H]1CCOC1=O [Compound B4] | Inhibition (%) / % RhlR inhibition | % | 66
O=C(Cc1ccc2ccccc2c1)NC1CCOC1=O (stereo not shown) [Compound E12] | Inhibition (%) / % RhlR inhibition | % | 77
O=C(COc1ccc(I)cc1)N[C@H]1CCOC1=O [Compound E22] | Inhibition (%) / % RhlR inhibition | % | 74

## Input Requested field: Inhibition (%) / % RhlR inhibition. Item: O=C(Cc1ccc(I)cc1)N[C@H]1CCOC1=O [Compound C10]
## Output 84

====

assayedSystem: QscR (Pseudomonas aeruginosa, UniProt G3XD77)
protocolConditions: compound at 100 μM against 15 nM OdDHL; untreated culture set to 100%; error ±10%
observable: % QscR inhibition (%)
Could you give me the number in %? Just the number is fine.

As a guide, the following entries are already answered.
compound | % QscR inhibition, %
O=C(Cc1ccc2ccccc2c1)NC1CCOC1=O (stereo not shown) | 60
O=C(Cc1ccc(I)cc1)N[C@H]1CCOC1=O | −79
O=C(Cc1ccccc1)N[C@@H]1CCOC1=O | 37

## Input Item under review: `O=C(COc1ccc(I)cc1)N[C@H]1CCOC1=O` . Reported % QscR inhibition?
## Output 18

====

assayedSystem: RhlR (Pseudomonas aeruginosa)
runDescription: RhlR agonism, P. aeruginosa GFP reporter strain PAO-JP2/prhlI-LVAgfp
Type: cell-based
protocolConditions: compound at 100 μM in the presence of 100 nM OdDHL, 900 μM BHL set to 100% activation, error ±10%, selected data reproduced from ref. [23]
observable: % RhlR activation (%)
Give a bare numeral; the unit % is implied.

molecule | unitSymbol | % RhlR activation
O=C(Cc1ccc(F)cc1)NC1CCOC1=O (stereo not drawn) [Compound C2] | % | 28
O=C(Cc1ccccc1I)NC1CCOC1=O (stereo not drawn) [Compound C12] | % | 11
O=C(Cc1cccc(Cl)c1)NC1CCOC1=O (stereo not drawn) [Compound C6] | % | 26
O=C(Cc1ccccc1F)N[C@H]1CCOC1=O [Compound C4] | % | 24
O=C(Cc1cccc(F)c1)NC1CCOC1=O (stereo not drawn) [Compound C3] | % | 28

// moving on: another record for % RhlR activation
## Input Suppose we examine the molecule O=C(Cc1ccccc1)NC1CCOC1=O (stereo not drawn) [Compound C1] ; what % RhlR activation value has been reported?
## Output 53

====

assayedSystem: LasR (Pseudomonas aeruginosa, UniProt P25084)
Sequence (P25084 whole entry): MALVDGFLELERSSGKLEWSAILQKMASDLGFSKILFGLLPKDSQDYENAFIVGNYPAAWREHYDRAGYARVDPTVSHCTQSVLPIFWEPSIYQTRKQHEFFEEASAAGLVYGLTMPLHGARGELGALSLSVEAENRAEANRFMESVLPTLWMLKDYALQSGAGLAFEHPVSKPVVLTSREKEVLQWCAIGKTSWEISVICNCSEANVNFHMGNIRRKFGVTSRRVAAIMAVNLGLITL
runDescription: LasR antagonism
Format: cell-based
protocolConditions: compound at 100 μM against 2 nM OdDHL; untreated culture set to 100%; negative values indicate receptor agonism; error ±10%
Below is a list of entries, each paired with its recorded % LasR inhibition value.
Write the value in % as a bare number.

compound | % LasR inhibition [%]
O=C(Cc1ccc2ccccc2c1)NC1CCOC1=O (stereo not shown) | 81
O=C(COc1ccc(I)cc1)N[C@H]1CCOC1=O | −9
O=C(Cc1ccccc1)N[C@@H]1CCOC1=O | 15

Next up:
## Input Query (compound): `O=C(Cc1ccc(I)cc1)N[C@H]1CCOC1=O` ; field requested: % LasR inhibition
## Output 58

====

assayedSystem: RhlR (Pseudomonas aeruginosa)
protocolConditions: read-out: EC50 (RhlR agonism); E. coli reporter; dose-response 100 nM – 1 mM
Entries and their EC50 values follow.
API: value field is a number in µM; no unit string.

molecule | EC50 [µM]
CSc1cccc(CC(=O)N[C@H]2CCOC2=O)c1 | 6.6
CCCC(=O)N[C@H]1CCOC1=O [BHL, N-butanoyl L-homoserine lactone, reference compound] | 11.1
O=C(Cc1ccccc1)NC1CCOC1=O (stereo not drawn) | 14.7
O=C(CCc1ccccc1)NC1CCOC1=O (stereo not drawn) | 6.6
O=C(Cc1ccc(F)cc1)NC1CCOC1=O (stereo not drawn) | 9

Lab note: next molecule to report on.
## Input Short answer please: EC50, RhlR (Pseudomonas aeruginosa), entry O=C(Cc1cccc(Cl)c1)NC1CCOC1=O (stereo not drawn)
## Output 5.5
